The measurements presented in this section are drawn from PubChem BioAssay (NCATS).

Can you tell me max response for the items I'm about to list?
measurement-notes: qHTS assay for small molecule antagonists of peroxisome proliferator-activated receptor delta signaling (AID 588535);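 further: cells co-treated with a PPAR-delta agonist as stimulator during compound exposure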
measurement-conditions: HEK293T PPARd-UAS-bla, beta-lactamase FRET ratio, 18 h; 460 nm channel
Results filed as inconclusive are left out.
Numbers only, in %.

Solved cases below.
{"columns": ["compound", "measurement-unit", "max response"],
 "data": [
  ["O=C(Cl)c1ccccc1F", "%", -9.33],
  ["O=[N+]([O-])c1c(Cl)c(Cl)c(Cl)c(Cl)c1Cl", "%", 0.973],
  ["ClCc1ccccn1", "%", 3.34]
]}

I would be grateful if you could provide max response for each of the following entries.
1. Nc1ccc(Oc2ccc(N)cc2)cc1
2. Cl/C=C/Cl
3. CC(C)CC(C)N (stereo unspecified)

### Response
1: 31.7; 2: -19.1; 3: -20.2

* * *

measurement-notes: Cellular Toxicity (caspase-3) N2a (AID 665);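 further: compound exposure lasted 16 h at 37 °C before readout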
measurement-conditions: N2a cells, luminescence, normalized: DMSO 0%, 10 µM staurosporine 100%; series mostly up to 92.2 µM
Calls of active or inactive are those of the source. The call rests on the fitted dose curve; in most records, active means well fitted activation curve with a large enough effect; inconclusive means small, poorly fitted or top-dose-only effect; inactive means flat fitted curve, though single readings scatter.
assay-readout: outcome

Solved cases below.
{"columns": ["smiles-notation", "outcome"],
 "data": [
  ["Oc1cc(Cl)ccc1Cl", "inactive"],
  ["C=C(C)CCl", "inactive"],
  ["Nc1cc(Cl)cc(C(=O)O)c1Cl", "inactive"],
  ["CN=C=O", "inactive"],
  ["ClC(Cl)Br", "inactive"],
  ["O=Cc1ccc(Cl)cc1Cl", "inactive"],
  ["O=C(O)c1cc(Cl)ccc1Cl", "inactive"],
  ["Cc1ccc([N+](=O)[O-])cc1", "inactive"]
]}

### Prompt Given the molecule `O=[N+]([O-])CCO` , write its reported outcome.
### Response inactive

* * *

Tested on: HIV-1 nucleocapsid protein NCp7 (binding to TG oligonucleotide)
measurement-notes: HIV Nucleocapsid (AID 346);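 further: potency is for inhibitors that block NC binding and lower polarization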
measurement-conditions: HIV-1 NC / fluorescein-TGTGTGTG probe, fluorescence polarization
Calls of active or inactive are those of the source. How the calls were made is not given here.
In this exercise, the only acceptable responses are True = active, False = inactive

Check out these entries, answers already filled in.
{"columns": ["smiles-notation", "classification"],
 "data": [
  ["COc1ccc2[nH]cc(CCNc3ccnc(-c4ccccc4Cl)n3)c2c1", "False"],
  ["COc1ccccc1CN1CCC2(CCNCC2)CC1", "False"]
]}

Query compound follows.
### Prompt What did the test return for `c1cncc(-c2nc(NCc3cccs3)c3ccccc3n2)c1` ?
### Response False

* * *

measurement-notes: Cell Viability - LYMP2-015 (AID 971);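 further: cells exposed to compound for 24 h; 0% = DMSO only and full effect = 92 µM tetraoctylammonium bromide; nearly all actives have a fitted effect of over 55% in size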
measurement-conditions: LYMP2-015 lymphoblastoid cell viability; series mostly up to 92.2 µM
Records with an inconclusive call do not appear. The source made the active and inactive calls. The call rests on the fitted dose curve; in most records, active means well fitted cell-killing curve with a large enough effect; inconclusive means small, poorly fitted or top-dose-only effect; inactive means flat fitted curve, though single readings scatter.
assay-readout: outcome

Solved cases below.
{"columns": ["compound", "endpoint-result"],
 "data": [
  ["C=COC(C)=O", "inactive"],
  ["CNC(=O)O/N=C/C(C)(C)S(C)=O (stereo not given)", "inactive"],
  ["CCOP(=S)(OCC)Oc1nc(Cl)c(Cl)cc1Cl", "inactive"],
  ["CCCCC#N", "inactive"],
  ["ClCC(Br)CBr (stereo not given)", "inactive"],
  ["CCCCOC(C)=O", "inactive"],
  ["CC(=O)[O-].CC(=O)[O-].CC(=O)[O-].[Cr+3]", "inactive"],
  ["Cc1cc(C)cc(OP(=O)(Oc2cc(C)cc(C)c2)Oc2cc(C)cc(C)c2)c1", "inactive"]
]}

I would be grateful if you could provide outcome for each of the following entries.
1. ClC(Cl)(Cl)C(Cl)(Cl)Cl
2. OCCCCO
3. CC12CC1(C)C(=O)N(c1cc(Cl)cc(Cl)c1)C2=O (stereo not given)
4. C(CCOCC1CO1)COCC1CO1 (stereo not given)

### Response
["inactive", "inactive", "inactive", "inactive"]

I would be grateful if you could provide outcome for each of the following entries.
1. Nc1cc(Cl)ccc1Cl
2. Cc1cnc[nH]1
3. OCCOCCO
4. Nc1cc(Cl)cc(C(=O)O)c1Cl
5. C=CC(=O)OCCN(C)C
6. c1ccc(NNc2ccccc2)cc1
7. N#CC(Cl)(Cl)Cl
8. OCC(Cl)CCl (stereo not given)

### Response
1: inactive; 2: inactive; 3: inactive; 4: inactive; 5: inactive; 6: inactive; 7: inactive; 8: inactive

I would be grateful if you could provide outcome for each of the following entries.
1. CCC#N
2. ClCC(Cl)Cl
3. Oc1cccc(Cl)c1
4. CCCCOCC1CO1 (stereo not given)
5. CC(C)[C@]12CC(=O)[C@H](C)[C@H]1C2

### Response
1: inactive; 2: inactive; 3: inactive; 4: inactive; 5: inactive

* * *

assay-target: Cytochrome P450 2D6 (Homo sapiens)
measurement-notes: qHTS Assay for Inhibitors and Substrates of Cytochrome P450 2D6 (AID 891); further: nearly all actives have a fitted effect of over 60% in size
measurement-conditions: recombinant CYP2D6, luciferin-ME EGE luminescence; series mostly up to 11.4 µM
Inconclusive results are not listed. Calls of active or inactive are those of the source. Calls follow the shape of the dose curve; as a rule, active = well fitted inhibition curve with a large enough effect; inconclusive = small, poorly fitted or top-dose-only effect; inactive = no such curve, though single readings can be large or run the other way.
In this exercise, the only acceptable responses are true (1) (active), false (0) (inactive)

{"columns": ["smiles-notation", "classification"],
 "data": [
  ["CCc1ccc(CCN2CCCCC2)nc1", "true (1)"]
]}

### Prompt What did the test return for `O=C(CCN1CC2CCC(CC2)C1)c1cccs1` ?
### Response true (1)

### Prompt What did the test return for `O=C(O)c1cc(N=Nc2ccc([As](=O)(O)O)cc2)ccc1O` ?
### Response false (0)

### Prompt What did the test return for `N[C@H](Cn1oc(=O)[nH]c1=O)C(=O)O` ?
### Response false (0)

* * *

measurement-notes: qHTS Assay for Identification of Small Molecule Agonists for Thrombopoietin (TPO) Signaling Pathway (AID 917); further: on the % scale 0 is the no-effect control and ±100 the full control effect
measurement-conditions: TPO signaling pathway reporter cells, agonist qHTS; series mostly up to 38.5 µM
Inconclusive results are not listed. Calls of active or inactive are those of the source. Calls come from the whole dose curve; as a rule, active = well fitted activation curve with a large enough effect; inconclusive = small, poorly fitted or top-dose-only effect, or effect the other way; inactive = flat fitted curve, though single readings scatter.
assay-readout: outcome

Solved cases below.
{"columns": ["smiles-notation", "outcome"],
 "data": [
  ["CC(C)C[C@H](NP(=O)(O)O[C@@H]1O[C@@H](C)[C@@H](O)[C@@H](O)[C@H]1O)C(=O)N[C@@H](Cc1c[nH]c2ccccc12)C(=O)O", "inactive"],
  ["C=CCN1CC[C@]23c4c5ccc(O)c4O[C@@H]2/C(=N/NC(=O)c2ccccc2)CC[C@@]3(O)[C@H]1C5", "inactive"],
  ["COc1cc([C@@H](O)CN)ccc1O", "inactive"],
  ["NC(=O)CN1C[C@@H](O)CC1=O", "inactive"]
]}

### Prompt Given the molecule `Nc1ncnc2c1ncn2[C@@H]1O[C@@H](COP(=O)(O)CP(=O)(O)OP(=O)(O)O)[C@H](O)[C@@H]1O` , write its reported outcome.
### Response inactive

* * *

assay-target: Mitogen-activated protein kinase 10 (Mus musculus) (UniProt Q61831)
measurement-notes: JNK3 AlphaScreen Assay (AID 530);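 further: kinase came from lysate of stimulated human HepG2 cells; signal reports phosphorylation of biotinylated GST-cJun 1-79 at Ser73 with 10 µM ATP; on the % scale 0 is the no-effect control and ±100 the full control effect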
measurement-conditions: JNK3 lysate, c-Jun phosphorylation; series mostly up to 57.1 µM
Records with an inconclusive call do not appear. Activity calls are given as the source filed them. Calls follow the shape of the dose curve; as a rule, active = well fitted curve in either direction with a large enough effect (not every such curve was filed as active); inconclusive = small, poorly fitted or top-dose-only effect, or another doubt; inactive = flat fitted curve, though single readings scatter.
assay-readout: activity change, negative = inhibition

{"columns": ["compound", "activity change, negative = inhibition"],
 "data": [
  ["CCC1(CCSC(=N)N)C(=O)NC(=O)NC1=O", "3.03% [at 11.4 µM] (inactive)"],
  ["N#CC(Br)Br", "inactive"],
  ["CCN(CC)N=O", "inactive"],
  ["Nc1cccc(Cl)c1", "inactive"],
  ["CC(C)(C)c1cc(C#N)cc(Br)c1OP(=O)(Oc1c(Br)cc(C#N)cc1C(C)(C)C)c1ccccc1", "-1.35% [at 11.4 µM] (inactive)"]
]}

I would be grateful if you could provide activity change, negative = inhibition for each of the following entries.
1. CCNCCC1(CC)C(=O)NC(=O)NC1=O
2. Cc1ccc2c(C)cccc2c1
3. NC(CCl)=N[C@H]1CN2CCC1CC2
4. CC(C)CON=O

### Response
1: 3.87% [at 11.4 µM] (inactive); 2: inactive; 3: 1.59% [at 11.4 µM] (inactive); 4: inactive

I would be grateful if you could provide activity change, negative = inhibition for each of the following entries.
1. CC12CC1(C)C(=O)N(c1cc(Cl)cc(Cl)c1)C2=O (centres undefined)
2. N[C@H](Cc1ccc2oc3cc(=O)c4ccccc4c-3nc2c1)C(=O)O
3. Nc1ccccc1O.O.O=C(O)[C@H]1[O][Sb][O][C@H]1C(=O)O
4. C=CC(=O)OCC(C)C

### Response
inactive
0.331% [at 11.4 µM] (inactive)
-2.79% [at 11.4 µM] (inactive)
inactive

### Prompt Given the compound `O=[As](O)(O)c1ccc2nc3cc([As](=O)(O)O)ccc3nc2c1` , write its reported activity change, negative = inhibition.
### Response -2.18% [at 11.4 µM] (inactive)
